molecular target: Chromobox protein homolog 8 (Homo sapiens, UniProt Q9HC52)
Sequence (Q9HC52 whole entry): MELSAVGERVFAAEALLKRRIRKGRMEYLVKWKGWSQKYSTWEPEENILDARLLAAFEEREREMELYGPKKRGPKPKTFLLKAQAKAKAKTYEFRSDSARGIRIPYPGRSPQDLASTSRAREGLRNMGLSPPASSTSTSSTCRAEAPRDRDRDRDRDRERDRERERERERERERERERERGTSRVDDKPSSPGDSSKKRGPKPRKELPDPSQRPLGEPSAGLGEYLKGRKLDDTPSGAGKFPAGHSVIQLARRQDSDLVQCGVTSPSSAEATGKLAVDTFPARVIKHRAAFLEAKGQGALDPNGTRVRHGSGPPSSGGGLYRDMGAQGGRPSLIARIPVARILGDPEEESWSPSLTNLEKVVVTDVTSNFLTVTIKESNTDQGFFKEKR
pKd: −log10 of the molar value. Starred links: 1 amine or outer side, 2 acyl side, 3 side chain; linkers in the order of their positions; H or OH if unused. Non-standard residues stand in square brackets, D forms with d. Residues, ends and D or L forms follow the SMILES beside them. *: point of attachment. Benzoyl(4-CO2Me) = COC(=O)c1ccc(C(=O)*)cc1; Lys(Me3) = C[N+](C)(C)CCCC[C@H](N)C(=O)O; Benzoyl(4-Br) = O=C(c1ccc(Br)cc1)*; Ethylenediamine = C(CN[*:2])N[*:1]; Gly(cPent) = N[C@H](C(=O)O)C1CCCC1; NHCH(CH2OH)2 = OCC(CO)N*
ENDPOINT: pKd

>  <COMPOUND>
CC(C)C[C@H](NC(=O)[C@H](C)NC(=O)[C@H](Cc1ccccc1)NC(=O)c1ccc(Br)cc1)C(=O)N[C@@H](CCCC[N+](C)(C)C)C(=O)N[C@@H](CO)C(N)=O ({Benzoyl(4-Br)}-FAL[Lys(Me3)]S-NH2)

>  <SYSTEM>
Chromobox protein homolog 8 (Homo sapiens, UniProt Q9HC52)

>  <VALUE MEASURED>
5.82

$$$$
>  <COMPOUND>
CC(=O)N[C@@H](Cc1ccccc1)C(=O)N[C@@H](C)C(=O)N[C@@H](CC(C)C)C(=O)N[C@@H](CCCC[N+](C)(C)C)C(=O)N[C@@H](CO)C(N)=O

>  <SYSTEM>
Chromobox protein homolog 8 (Homo sapiens, UniProt Q9HC52)

>  <VALUE MEASURED>
4.85

$$$$
>  <COMPOUND>
CC(=O)N[C@@H](Cc1ccccc1)C(=O)N[C@@H](C)C(=O)N[C@@H](CC(C)C)C(=O)N[C@@H](CCCC[N+](C)(C)C)C(=O)N[C@H](CO)C(N)=O

>  <SYSTEM>
Chromobox protein homolog 8 (Homo sapiens, UniProt Q9HC52)

>  <VALUE MEASURED>
4.82

$$$$
>  <COMPOUND>
CC(=O)N[C@@H](Cc1ccccc1)C(=O)N[C@@H](C)C(=O)N[C@@H](Cc1ccc(O)cc1)C(=O)N[C@@H](CCCC[N+](C)(C)C)C(=O)N[C@@H](CO)C(N)=O (Ac-FAY[Lys(Me3)]S-NH2)

>  <SYSTEM>
Chromobox protein homolog 8 (Homo sapiens, UniProt Q9HC52)

>  <VALUE MEASURED>
4.91

$$$$
>  <COMPOUND>
COC(=O)c1ccc(C(=O)N[C@@H](Cc2ccccc2)C(=O)N[C@@H](C)C(=O)N[C@H](C(=O)N[C@@H](CCCC[N+](C)(C)C)C(=O)NC(CO)CO)C2CCCC2)cc1 ({Benzoyl(4-CO2Me)}-FA[Gly(cPent)][Lys(Me3)]-{NHCH(CH2OH)2})

>  <SYSTEM>
Chromobox protein homolog 8 (Homo sapiens, UniProt Q9HC52)

>  <VALUE MEASURED>
5.72

$$$$
>  <COMPOUND>
COC(=O)c1ccc(C(=O)N[C@@H](Cc2ccccc2)C(=O)N[C@@H](C)C(=O)N[C@H](C(=O)N[C@@H](CCCC[N+](C)(C)C)C(=O)N[C@@H](CO)C(N)=O)C2CCCC2)cc1 ({Benzoyl(4-CO2Me)}-FA[Gly(cPent)][Lys(Me3)]S-NH2)

>  <SYSTEM>
Chromobox protein homolog 8 (Homo sapiens, UniProt Q9HC52)

>  <VALUE MEASURED>
5.75

$$$$
>  <COMPOUND>
C[C@H](NC(=O)[C@H](Cc1ccccc1)NC(=O)c1ccc(Br)cc1)C(=O)N[C@H](C(=O)N[C@@H](CCCC[N+](C)(C)C)C(=O)NCCN)C1CCCC1 ({Benzoyl(4-Br)}-FA[Gly(cPent)][Lys(Me3)]-Ethylenediamine)

>  <SYSTEM>
Chromobox protein homolog 8 (Homo sapiens, UniProt Q9HC52)

>  <VALUE MEASURED>
6.32

$$$$

* * *

biological target: Chromobox protein homolog 1 (Homo sapiens, UniProt P83916)
Sequence (P83916 whole entry): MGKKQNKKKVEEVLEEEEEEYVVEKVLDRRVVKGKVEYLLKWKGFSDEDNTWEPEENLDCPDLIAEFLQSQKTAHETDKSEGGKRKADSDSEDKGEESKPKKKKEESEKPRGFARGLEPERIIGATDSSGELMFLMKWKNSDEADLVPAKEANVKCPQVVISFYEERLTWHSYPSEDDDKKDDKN
Non-standard residues stand in square brackets, D forms with d. Residues, ends and D or L forms follow the SMILES beside them. *: point of attachment. Benzoyl(4-CO2Me) = COC(=O)c1ccc(C(=O)*)cc1; Lys(Me3) = C[N+](C)(C)CCCC[C@H](N)C(=O)O; Gly(cPent) = N[C@H](C(=O)O)C1CCCC1; NHCH(CH2OH)2 = OCC(CO)N*

>  <MOLECULE>
COC(=O)c1ccc(C(=O)N[C@@H](Cc2ccccc2)C(=O)N[C@@H](C)C(=O)N[C@H](C(=O)N[C@@H](CCCC[N+](C)(C)C)C(=O)NC(CO)CO)C2CCCC2)cc1 ({Benzoyl(4-CO2Me)}-FA[Gly(cPent)][Lys(Me3)]-{NHCH(CH2OH)2})

>  <SYSTEM>
Chromobox protein homolog 1 (Homo sapiens, UniProt P83916)

>  <VALUE QUALIFIER>
>

>  <Kd / µM>
500

$$$$
>  <MOLECULE>
CC(=O)N[C@@H](Cc1ccccc1)C(=O)N[C@@H](C)C(=O)N[C@@H](CC(C)C)C(=O)N[C@@H](CCCC[N+](C)(C)C)C(=O)N[C@@H](CO)C(N)=O

>  <SYSTEM>
Chromobox protein homolog 1 (Homo sapiens, UniProt P83916)

>  <VALUE QUALIFIER>
=

>  <Kd / µM>
43

$$$$

* * *

Molecular target: Chromobox protein homolog 7 (Homo sapiens, UniProt O95931)
Sequence (O95931 whole entry): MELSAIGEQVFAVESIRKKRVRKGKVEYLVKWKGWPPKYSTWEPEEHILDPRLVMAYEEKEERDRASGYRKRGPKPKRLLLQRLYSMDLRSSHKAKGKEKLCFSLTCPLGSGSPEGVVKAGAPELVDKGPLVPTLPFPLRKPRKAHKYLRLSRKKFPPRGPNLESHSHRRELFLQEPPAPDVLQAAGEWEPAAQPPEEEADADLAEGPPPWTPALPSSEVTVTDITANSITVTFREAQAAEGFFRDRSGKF
pIC50: −log10 of the molar value. Non-standard residues stand in square brackets, D forms with d. Residues, ends and D or L forms follow the SMILES beside them. Lys(Me3) = C[N+](C)(C)CCCC[C@H](N)C(=O)O; Nle = CCCC[C@H](N)C(=O)O
// pIC50 lookup, one value per entry
ENDPOINT: pIC50

>  <COMPOUND>
CCCC[C@H](NC(=O)[C@H](Cc1ccccc1)NC(C)=O)C(=O)N[C@@H](CC(C)C)C(=O)N[C@@H](CCCC[N+](C)(C)C)C(=O)N[C@@H](CO)C(N)=O (Ac-F[Nle]L[Lys(Me3)]S-NH2)

>  <SYSTEM>
Chromobox protein homolog 7 (Homo sapiens, UniProt O95931)

>  <VALUE MEASURED>
3.92

$$$$
>  <COMPOUND>
CC(=O)N[C@@H](Cc1ccccc1)C(=O)N[C@@H](C)C(=O)N[C@H](C(=O)N[C@@H](CCCC[N+](C)(C)C)C(=O)N[C@@H](CO)C(N)=O)C(C)C (Ac-FAV[Lys(Me3)]S-NH2)

>  <SYSTEM>
Chromobox protein homolog 7 (Homo sapiens, UniProt O95931)

>  <VALUE MEASURED>
5.17

$$$$
>  <COMPOUND>
CC(=O)N[C@@H](Cc1ccc(O)cc1)C(=O)N[C@@H](C)C(=O)N[C@@H](CC(C)C)C(=O)N[C@@H](CCCC[N+](C)(C)C)C(=O)N[C@@H](CO)C(N)=O (Ac-YAL[Lys(Me3)]S-NH2)

>  <SYSTEM>
Chromobox protein homolog 7 (Homo sapiens, UniProt O95931)

>  <VALUE MEASURED>
5.07

$$$$

* * *

molecular target: Chromobox protein homolog 7 (Homo sapiens)
Starred links: 1 amine or outer side, 2 acyl side, 3 side chain; linkers in the order of their positions; H or OH if unused. Non-standard residues stand in square brackets, D forms with d. Residues, ends and D or L forms follow the SMILES beside them. *: point of attachment. Lys(Me3) = C[N+](C)(C)CCCC[C@H](N)C(=O)O; Benzoyl(4-Br) = O=C(c1ccc(Br)cc1)*; Ethylenediamine = C(CN[*:2])N[*:1]; Phg = N[C@H](C(=O)O)c1ccccc1; Tle = CC(C)(C)[C@H](N)C(=O)O; X2 = O=C(c1c[nH]c2ccccc12)*; Nle = CCCC[C@H](N)C(=O)O
Note to self: IC50 under 30 µM means True, ties and anything higher get False.

>  <MOLECULE>
CC(=O)N[C@@H](Cc1ccccc1)C(=O)N[C@@H](CO)C(=O)N[C@@H](CC(C)C)C(=O)N[C@@H](CCCC[N+](C)(C)C)C(=O)N[C@@H](CO)C(N)=O (Ac-FSL[Lys(Me3)]S-NH2)

>  <CLASS NAME>
False

$$$$
>  <MOLECULE>
CC(=O)N[C@@H](Cc1ccccc1)C(=O)N[C@@H](C)C(=O)N[C@H](C(=O)N[C@@H](CCCC[N+](C)(C)C)C(=O)N[C@@H](CO)C(N)=O)C(C)(C)C (Ac-FA[Tle][Lys(Me3)]S-NH2)

>  <CLASS NAME>
False

$$$$
>  <MOLECULE>
CC[C@H](C)[C@H](NC(=O)[C@H](C)NC(=O)[C@H](Cc1ccccc1)NC(C)=O)C(=O)N[C@@H](CCCC[N+](C)(C)C)C(=O)N[C@@H](CO)C(N)=O (Ac-FAI[Lys(Me3)]S-NH2)

>  <CLASS NAME>
True

$$$$
>  <MOLECULE>
CC(=O)N[C@@H](Cc1ccccc1)C(=O)N[C@@H](C)C(=O)N[C@@H](CCCCN)C(=O)N[C@@H](CCCC[N+](C)(C)C)C(=O)N[C@@H](CO)C(N)=O (Ac-FAK[Lys(Me3)]S-NH2)

>  <CLASS NAME>
True

$$$$
>  <MOLECULE>
CC(C)C[C@H](NC(=O)[C@H](C)NC(=O)c1c[nH]c2ccccc12)C(=O)N[C@@H](CCCC[N+](C)(C)C)C(=O)N[C@@H](CO)C(N)=O (X2-AL[Lys(Me3)]S-NH2)

>  <CLASS NAME>
False

$$$$
>  <MOLECULE>
CC(=O)N[C@H](C(=O)N[C@@H](C)C(=O)N[C@@H](CC(C)C)C(=O)N[C@@H](CCCC[N+](C)(C)C)C(=O)N[C@@H](CO)C(N)=O)c1ccccc1 (Ac-[Phg]AL[Lys(Me3)]S-NH2)

>  <CLASS NAME>
True

$$$$
>  <MOLECULE>
CC(=O)N[C@@H](Cc1ccccc1)C(=O)N[C@@H](C)C(=O)N[C@H](C(=O)N[C@@H](CCCC[N+](C)(C)C)C(=O)N[C@@H](CO)C(N)=O)[C@@H](C)O (Ac-FAT[Lys(Me3)]S-NH2)

>  <CLASS NAME>
False

$$$$
>  <MOLECULE>
CCCC[C@H](NC(=O)[C@H](C)NC(=O)[C@H](Cc1ccccc1)NC(C)=O)C(=O)N[C@@H](CCCC[N+](C)(C)C)C(=O)N[C@@H](CO)C(N)=O (Ac-FA[Nle][Lys(Me3)]S-NH2)

>  <CLASS NAME>
True

$$$$
>  <MOLECULE>
CC(=O)N[C@@H](Cc1ccccc1)C(=O)N[C@@H](C)C(=O)N[C@@H](CC(C)C)C(=O)N[C@@H](CCCC[N+](C)(C)C)C(=O)NCCN (Ac-FAL[Lys(Me3)]-Ethylenediamine)

>  <CLASS NAME>
True

$$$$
>  <MOLECULE>
CC(C)C[C@H](NC(=O)[C@H](C)NC(=O)[C@H](Cc1ccccc1)NC(=O)c1ccc(Br)cc1)C(=O)N[C@@H](CCCC[N+](C)(C)C)C(=O)N[C@@H](CO)C(N)=O ({Benzoyl(4-Br)}-FAL[Lys(Me3)]S-NH2)

>  <CLASS NAME>
True

$$$$

All values here come from ChEMBL document CHEMBL3233003.
